# PROTOCOL: 28-day repeat-dose toxicity study, toxicokinetics of AMXT 1501 dicaprate
# Type: in vivo, beagle dogs
# RUN_CONDITIONS: both sexes, beagle, dog, plasma, po, 8 mg/kg/day, 8 mg/kg/day PO, DFMO 200 mg/kg/day, Day 1, M+F combined; read-out: Cmax Mean
OBSERVED_PROPERTY: Cmax

For CCCCCCCCCCCCCCCC(=O)NCCCC[C@@H](N)C(=O)NCCCNCCCCNCCCN [AMXT 1501 dicaprate] the molecule record lists Cmax as 101 ng/mL

----------
# PROTOCOL: 28-day repeat-dose toxicity study, toxicokinetics of AMXT 1501 dicaprate
# Assay type: in vivo, beagle dogs
# RUN_CONDITIONS: both sexes, beagle, dog, plasma, po, 16 mg/kg/day, 16 mg/kg/day PO, DFMO 0, Day 1, M+F combined; read-out: Cmax Median
OBSERVED_PROPERTY: Cmax (ng/mL)
The reply should contain only the number, in ng/mL.

For CCCCCCCCCCCCCCCC(=O)NCCCC[C@@H](N)C(=O)NCCCNCCCCNCCCN [AMXT 1501 dicaprate] the compound record lists Cmax as 113

----------
# PROTOCOL: 28-day repeat-dose toxicity study, toxicokinetics of AMXT 1501 dicaprate
# Format: in vivo, beagle dogs
# RUN_CONDITIONS: both sexes, beagle, dog, plasma, po, 32 mg/kg/day, 32 mg/kg/day PO, DFMO 0, Day 28, M+F combined; read-out: AUC0-∞ Median
OBSERVED_PROPERTY: AUC(0-inf) (ng·h/mL)
The reply should contain only the number, in ng·h/mL.

For CCCCCCCCCCCCCCCC(=O)NCCCC[C@@H](N)C(=O)NCCCNCCCCNCCCN [AMXT 1501 dicaprate] the compound record lists AUC(0-inf) as 24400

----------
# PROTOCOL: 28-day repeat-dose toxicity study, toxicokinetics of AMXT 1501 dicaprate
# Type: in vivo, beagle dogs
# RUN_CONDITIONS: both sexes, beagle, dog, plasma, po, 16 mg/kg/day, 16 mg/kg/day PO, DFMO 0, Day 28, M+F combined; read-out: Cmax Mean
OBSERVED_PROPERTY: Cmax (ng/mL)
The reply should contain only the number, in ng/mL.

For CCCCCCCCCCCCCCCC(=O)NCCCC[C@@H](N)C(=O)NCCCNCCCCNCCCN [AMXT 1501 dicaprate] the compound record lists Cmax as 286

----------
# PROTOCOL: Pharmacokinetic analysis of AMXT 1501 salt forms, single oral tablet dose
# Format: in vivo, beagle dogs
# RUN_CONDITIONS: beagle, dog, plasma, po, 16 mg/kg, single PO dose 16.0 mg/kg (2 x 80 mg tablets), plasma AMXT 1501; read-out: Tmax Mean
# Text: Following dose administration all the animals had serial blood collections. Table 18 provides pharmacokinetic data obtained using the various salt forms of AMXT 1501 following single PO dosing to dogs. In Table 18, Group 1 received the free base form of AMXT 1501, Group 2 received the dicholate salt of AMXT 1501, Group 3 received the phosphate salt form of AMXT 1501, and Group 4 received the dicaprate salt form of AMXT 1501. […]
OBSERVED_PROPERTY: Tmax (h)
The reply should contain only the number, in h.

For CCCCCCCCCCCCCCCC(=O)NCCCC[C@@H](N)C(=O)NCCCNCCCCNCCCN [AMXT 1501 dicaprate] the compound record lists Tmax as 6

The values you see were collected from patent US12364709B2.
